All values here come from patent US8168625B2.

Measured concentration at 8 h accompanies every entry in the list below.
experiment: Bioavailability after single dose: sublingual tablets (Examples I-III) versus conventional oral tablets, crossed randomized studies; settings: male, human, plasma, po
# value in ng/mL; strip the unit string

O=C1CN=C(c2ccccn2)c2cc(Br)ccc2N1 ... 49.1

# concentration at 8 h lookup, item O=C1Nc2ccc(Cl)cc2C(c2ccccc2Cl)=NC1O (centres unmarked)
19.6

* * *

assay: Bioavailability after single dose: sublingual tablets (Examples I-III) versus conventional oral tablets, crossed randomized studies; details: male, human, plasma, po
MEASURED ATTRIBUTE: concentration at 10 h (ng/mL)
# value in ng/mL; strip the unit string

O=C1CN=C(c2ccccn2)c2cc(Br)ccc2N1 ... 42.7

# input for lookup
# concentration at 10 h lookup, item O=C1Nc2ccc(Cl)cc2C(c2ccccc2Cl)=NC1O (centres unmarked)
16.6
